test system: RARb homodimer (NR concentration 270 nM); test: PBM binding z-score (relative to random genomic background probes); higher = stronger binding; sequences stand for … in GC…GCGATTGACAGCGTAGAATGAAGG
ENDPOINT: PBM binding z-score
One number for each entry.

Record excerpt, results attached:
                       sequence_chain                              assay_target   value
0  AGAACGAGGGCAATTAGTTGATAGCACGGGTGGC  RARb homodimer (NR concentration 270 nM)    1.14
1  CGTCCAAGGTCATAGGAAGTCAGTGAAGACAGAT  RARb homodimer (NR concentration 270 nM)     3.7
2  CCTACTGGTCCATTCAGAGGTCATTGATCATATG  RARb homodimer (NR concentration 270 nM)    4.13
3  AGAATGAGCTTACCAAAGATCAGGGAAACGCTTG  RARb homodimer (NR concentration 270 nM)  -0.958
4  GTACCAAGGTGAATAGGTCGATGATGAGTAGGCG  RARb homodimer (NR concentration 270 nM)    1.77
5  TCTGCTAGGTCAACGATGGTCACCTAATCTGCTA  RARb homodimer (NR concentration 270 nM)    3.63
6  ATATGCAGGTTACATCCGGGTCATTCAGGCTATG  RARb homodimer (NR concentration 270 nM)    2.86
7  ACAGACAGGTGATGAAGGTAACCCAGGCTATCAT  RARb homodimer (NR concentration 270 nM)   0.672

Below are 3 sequences. Give each one its PBM binding z-score.
1. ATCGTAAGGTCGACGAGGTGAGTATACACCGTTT
2. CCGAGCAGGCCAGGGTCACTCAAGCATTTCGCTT
3. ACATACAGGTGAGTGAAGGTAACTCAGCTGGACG

1: 2.31; 2: 2.91; 3: 0.773

Batch: PBM binding z-score for all items listed.
1. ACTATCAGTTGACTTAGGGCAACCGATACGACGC
2. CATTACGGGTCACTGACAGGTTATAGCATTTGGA
3. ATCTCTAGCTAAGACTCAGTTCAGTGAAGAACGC
4. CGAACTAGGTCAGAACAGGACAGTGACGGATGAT
5. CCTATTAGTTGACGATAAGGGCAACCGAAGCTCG

0.986
3.58
0.502
2
1.43

Please supply PBM binding z-score for each of the following items, keeping them in order.
1. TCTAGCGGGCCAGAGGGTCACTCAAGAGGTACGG
2. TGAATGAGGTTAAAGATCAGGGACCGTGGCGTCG
3. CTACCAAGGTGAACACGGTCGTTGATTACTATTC
4. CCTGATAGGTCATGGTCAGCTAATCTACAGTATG
5. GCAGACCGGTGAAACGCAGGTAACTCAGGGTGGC
6. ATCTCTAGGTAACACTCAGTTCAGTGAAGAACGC
7. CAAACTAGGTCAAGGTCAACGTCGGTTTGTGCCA
8. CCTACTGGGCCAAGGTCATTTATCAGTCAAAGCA

1. 2.86
2. 0.662
3. 1.24
4. 3.69
5. -0.498
6. 1.27
7. 5.65
8. 3.46
